# Test system: Raji
# assayDetails: Inhibition of EBV-early antigen activation in human Raji cells assessed as early antigen activation at 320 nM
# Assay type: cell-based
# Design: scale not given: the % may be the effect or the level left
# details: human gammaherpesvirus 4
Measured Activity of individual entries

lineNotation: COc1ccc(-c2coc3cc(OC(C)=O)ccc3c2=O)cc1
Activity (%): 0
--
lineNotation: COc1ccc(-c2coc3cc(OC(C)=O)c(OC)cc3c2=O)cc1
Activity (%): 2.1
--
lineNotation: COc1ccc(-c2coc3cc(O[C@@H]4O[C@H](CO)[C@@H](O)[C@H](O)[C@H]4O)ccc3c2=O)cc1
Activity (%): 2
--
lineNotation: COc1ccc(-c2coc3cc(O)c(OC)cc3c2=O)cc1
Activity (%): 34
--
lineNotation: COc1ccc(-c2coc3cc(O[C@@H]4O[C@H](CO)[C@@H](O)[C@H](O)[C@H]4O)c(OC)cc3c2=O)cc1
Activity (%): 0
--
lineNotation: COc1ccc(-c2coc3cc(O)ccc3c2=O)cc1
Activity (%): 0

###

# Species on record: Mus musculus
# assayDetails: Displacement of [3H]TPA from TPA receptor in ICR mouse epidermal particulate fraction by Me2CO filter method
Activity calls are given as the source filed them. No cut-off for these calls is given here.

lineNotation: COc1ccc(-c2coc3cc(OC(C)=O)c(OC)cc3c2=O)cc1
Activity: inactive

lineNotation: COc1ccc(-c2coc3cc(O)ccc3c2=O)cc1
Activity: inactive

lineNotation: CCCCCCCCCCCCCC(=O)O[C@@H]1[C@@H](C)[C@@]2(O)[C@@H](C=C(CO)C[C@]3(O)C(=O)C(C)=C[C@@H]23)[C@@H]2C(C)(C)[C@]12OC(C)=O
Activity: Active

lineNotation: COc1ccc(-c2coc3cc(O)c(OC)cc3c2=O)cc1
Activity: inactive

lineNotation: C=C[C@]1(C)CC[C@@](C)(C(C)C)c2cc3c4c(c[nH]c4c21)C[C@@H](CO)NC(=O)[C@H](C(C)C)N3C
Activity: Active

###

# Test system: Raji
# assayDetails: Inhibition of 12-O-tetradecanoylphorbol-13-acetate-induced EBV-early antigen activation in human Raji cells assessed as early antigen induction at 10 molar ratio after 48 hrs by indirect immunofluorescence technique relative to TPA
# Type: cell-based
# Design: scale not given: the % may be the effect or the level left
# details: human gammaherpesvirus 4

compound: COc1ccc(-c2coc3cc(OC(C)=O)ccc3c2=O)cc1
Activity [%]: 100
//
compound: COc1ccc(-c2coc3cc(O[C@@H]4O[C@H](CO)[C@@H](O)[C@H](O)[C@H]4O)c(OC)cc3c2=O)cc1 [WISTIN]
Activity [%]: 100
//
compound: COc1ccc(-c2coc3cc(O)ccc3c2=O)cc1 [FORMONONETIN]
Activity [%]: 100
//
compound: COc1ccc(-c2coc3cc(O)c(OC)cc3c2=O)cc1 [CASTANIN]
Activity [%]: 100
//
compound: COc1ccc(-c2coc3cc(O[C@@H]4O[C@H](CO)[C@@H](O)[C@H](O)[C@H]4O)ccc3c2=O)cc1 [ONONIN]
Activity [%]: 100
//
compound: COc1ccc(-c2coc3cc(OC(C)=O)c(OC)cc3c2=O)cc1
Activity [%]: 72.7

###

# assayDetails: Cytotoxicity against human Raji cells assessed as cell viability at 100 molar ratio
# Format: cell-based
# details: read-out: Activity

compound: COc1ccc(-c2coc3cc(O[C@@H]4O[C@H](CO)[C@@H](O)[C@H](O)[C@H]4O)ccc3c2=O)cc1 [ONONIN]
viability at 100 molar ratio: 100%

compound: COc1ccc(-c2coc3cc(O)c(OC)cc3c2=O)cc1 [CASTANIN]
viability at 100 molar ratio: > 80%

compound: COc1ccc(-c2coc3cc(OC(C)=O)c(OC)cc3c2=O)cc1
viability at 100 molar ratio: > 80%

compound: COc1ccc(-c2coc3cc(OC(C)=O)ccc3c2=O)cc1
viability at 100 molar ratio: 100%

compound: COc1ccc(-c2coc3cc(O)ccc3c2=O)cc1 [FORMONONETIN]
viability at 100 molar ratio: > 80%

compound: COc1ccc(-c2coc3cc(O[C@@H]4O[C@H](CO)[C@@H](O)[C@H](O)[C@H]4O)c(OC)cc3c2=O)cc1 [WISTIN]
viability at 100 molar ratio: > 80%
